Data provenance is ChEMBL document CHEMBL4513216.

experiment: Toxicity liver stage against HepG2, at 10uM; format: cell-based; set-up: test concentration 10 uM, cell line HepG2-A16-CD81EGFP; conditions: human, HepG2-A16-CD81EGFP cells; read-out: INHIBITION
Here, each record is paired with measured cytotoxicity at 10 µM data.
Answer shape: numeric part, then the unit.

The cases that follow already have their cytotoxicity at 10 µM on record.
CCS(=O)(=O)N1CC[C@]2(C[C@@H](OCC3CC3)CO2)C1 = -15.6%
Cc1cc(N2CCC(NC(=O)CCc3ccco3)CC2)nc(C)n1 = -14.3%
O=C(NCCCF)Nc1ccc2nc(N3CCOCC3)oc2c1 = 2.77%
O=S(=O)(NCC1CCN(CCN2CCOCC2)C1)c1ccccc1F (stereo unspecified) = -57.9%
Cc1cc(C)n(C2CN(Cc3nc4cc(Cl)ccc4n3C)C2)n1 = -2.35%

Would you kindly look at the next entry?
[in] Tell me the measured cytotoxicity at 10 µM of "Cn1cc(-c2cnc(N3CCOCC3)nc2)cc1C(=O)NCCC#N" , please.
[out] -83.9%
